biological target: human plasmin (Homo sapiens, UniProt P00747); assay: Antiplasmin activity: inhibition of fibrin decomposition; format: biochemical; settings: Table 2; concentration at which fibrin dissolution time is extended twice, pH 7.4, 37°C; read-out: Plasmin Fibrin (concentration I₅₀)
Sequence (P00747 581-810 limits assumed): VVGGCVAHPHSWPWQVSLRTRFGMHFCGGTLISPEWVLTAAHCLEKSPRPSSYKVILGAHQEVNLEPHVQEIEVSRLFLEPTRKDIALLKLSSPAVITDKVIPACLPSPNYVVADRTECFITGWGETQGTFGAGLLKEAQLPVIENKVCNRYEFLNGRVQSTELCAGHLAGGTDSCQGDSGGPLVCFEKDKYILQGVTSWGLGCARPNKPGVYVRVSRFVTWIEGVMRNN
Sequence (P00747 97-580 partner limits assumed): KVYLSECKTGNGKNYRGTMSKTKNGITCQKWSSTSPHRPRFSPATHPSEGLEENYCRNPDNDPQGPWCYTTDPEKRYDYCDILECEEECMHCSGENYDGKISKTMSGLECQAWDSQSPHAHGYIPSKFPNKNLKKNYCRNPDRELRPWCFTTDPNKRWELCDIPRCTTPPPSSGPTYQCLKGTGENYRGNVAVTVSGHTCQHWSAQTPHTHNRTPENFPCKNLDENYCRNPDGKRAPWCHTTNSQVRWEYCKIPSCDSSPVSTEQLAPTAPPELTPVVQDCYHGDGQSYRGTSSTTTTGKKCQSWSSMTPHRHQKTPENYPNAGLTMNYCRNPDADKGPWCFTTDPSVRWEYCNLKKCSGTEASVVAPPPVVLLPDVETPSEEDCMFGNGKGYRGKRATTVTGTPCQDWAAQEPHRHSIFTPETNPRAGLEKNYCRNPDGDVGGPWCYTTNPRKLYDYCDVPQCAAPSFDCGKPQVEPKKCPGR
pIC50: −log10 of the molar value. Where a name gives a salt, the structure may show the parent alone.
Quick reference: pIC50 of the listed items.

Input: Suppose we examine the molecule `CN(Cc1ccncc1)C(=O)[C@H](Cc1ccccc1)NC(=O)c1ccc(NC(=N)N)cc1` ; what pIC50 value has been reported?
Output: < 3.00

Input: May I ask what pIC50 has been recorded for Cc1ccc(NC(=O)[C@H](Cc2ccccc2)NC(=O)c2ccc(NC(=N)N)cc2)cc1 [compound 13, hydrochloride] ?
Output: < 3.70

Input: Fill blank: measured pIC50 of the molecule `COc1ccc(NC(=O)[C@H](Cc2ccc(OCc3ccccc3)cc2)NC(=O)c2ccc(NC(=N)N)cc2)cn1` is ____.
Output: 4.32

Input: pIC50 lookup needed for `N=C(N)NCCCC(=O)N[C@@H](Cc1ccc([N+](=O)[O-])cc1)C(=O)Nc1ccc(C(=O)c2ccccc2)cc1` , thanks.
Output: 4.09

Others:
Input: Reported pIC50 for CN(Cc1ccncc1)C(=O)[C@H](Cc1ccccc1)NC(=O)CCCCCN [Compound No. 6, dihydrochloride] : what is it?
Output: < 3.00

Input: Which value of pIC50 has been reported for `NCCCCC(=O)N[C@@H](Cc1ccccc1)C(=O)Nc1ccc(C(=O)c2ccccc2)cc1` in the records?
Output: < 4.00

Input: Which pIC50 is reported for this molecule? CCOC(=O)CC(O)CNC(=O)[C@H](Cc1ccccc1)NC(=O)CCCCCN (stereo partly shown)
Output: < 3.30

---

Test system human urokinase (Homo sapiens, UniProt P00749), pIC50 listed for each of the compounds.
pIC50: −log10 of the molar value. Structures can show the parent of a compound that is named as a salt.

Record excerpt, results attached:
Input: Could you tell me which pIC50 is on file for CCOC(=O)CC(O)CNC(=O)[C@H](Cc1ccccc1)NC(=O)CCCCN (stereo partly drawn) ?
Output: < 3.00

Input: Quick one: pIC50 for `COC(=O)[C@@H]1CCCN1C(=O)[C@H](Cc1ccccc1)NC(=O)c1ccc(NC(=N)N)cc1` ?
Output: < 3.00

The record that follows has no pIC50 shown yet.
Input: What pIC50 value was documented for this compound, CN(Cc1ccncc1)C(=O)[C@H](Cc1ccccc1)NC(=O)CCCCCN [Compound No. 6, dihydrochloride] ?
Output: < 3.30

---

molecular target: human plasma kallikrein (Homo sapiens); experiment: Anti-plasma kallikrein activity: inhibition of S-2302 decomposition; settings: Table 2; substrate S-2302, pH 7.8, 37°C; read-out: Plasma Kallikrein S-2302 (concentration I₅₀)
Sequence (P03952 391-638 limits assumed): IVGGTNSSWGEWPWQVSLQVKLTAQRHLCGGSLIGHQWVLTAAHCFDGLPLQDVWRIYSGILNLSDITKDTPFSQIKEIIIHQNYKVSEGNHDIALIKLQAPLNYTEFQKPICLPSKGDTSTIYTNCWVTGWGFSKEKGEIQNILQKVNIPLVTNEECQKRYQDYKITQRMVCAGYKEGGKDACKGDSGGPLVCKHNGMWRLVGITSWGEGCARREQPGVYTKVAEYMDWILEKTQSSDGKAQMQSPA
Sequence (P03952 20-390 partner limits assumed): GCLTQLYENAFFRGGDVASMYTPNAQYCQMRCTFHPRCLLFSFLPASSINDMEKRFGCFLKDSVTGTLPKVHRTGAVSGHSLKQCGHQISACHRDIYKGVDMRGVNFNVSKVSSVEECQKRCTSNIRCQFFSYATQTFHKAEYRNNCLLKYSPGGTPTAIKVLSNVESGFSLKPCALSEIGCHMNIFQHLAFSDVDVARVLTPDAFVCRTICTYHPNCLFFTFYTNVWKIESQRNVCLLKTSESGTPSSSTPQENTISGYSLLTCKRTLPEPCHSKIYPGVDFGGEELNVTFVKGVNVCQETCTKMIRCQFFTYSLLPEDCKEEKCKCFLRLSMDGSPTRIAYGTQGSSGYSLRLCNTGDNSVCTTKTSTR
pIC50: −log10 of the molar value. Counter-ions that a name gives are not always drawn.
Quantity Kind: pIC50

Some compounds with known pIC50 results, for comparison:
Input: Record lookup: for human plasma kallikrein (Homo sapiens), what pIC50 belongs to CN(Cc1ccncc1)C(=O)[C@H](Cc1ccccc1)NC(=O)CCCCCN [Compound No. 6, dihydrochloride] ?
Output: < 3.00

Input: Request: pIC50, test system human plasma kallikrein (Homo sapiens), entry `COC(=O)[C@@H]1CCCN1C(=O)[C@H](Cc1ccccc1)NC(=O)c1ccc(NC(=N)N)cc1`
Output: < 3.00

Input: Query for human plasma kallikrein (Homo sapiens): what pIC50 does the record show for CCOC(=O)CC(O)CNC(=O)[C@H](Cc1ccccc1)NC(=O)CCCCCN (stereo partly shown) ?
Output: < 3.30

Consider the record given below.
Input: Please provide the recorded pIC50 for `N=C(N)NC[C@H]1CC[C@H](C(=O)N[C@@H](Cc2ccc([N+](=O)[O-])cc2)C(=O)Nc2ccc(C(=O)c3ccccc3)cc2)CC1` , tested on human plasma kallikrein (Homo sapiens).
Output: < 4.00
